# ASSAY INFO: Thermo Scientific Acclaim RSLC 120 C18, 100 × 2.1 mm, 2.2 µm, 30 °C; A: 90% water + 10% methanol + 0.01% formic acid + 5 mM ammonium formate; B: methanol + 0.01% formic acid + 5 mM ammonium formate; gradient (min/%B) 0.1/1 3/39 14/99.9 16/99.9
# TEST SETTINGS: stereoisomer not certain
PARAMETER MEASURED: LC retention time (min)

[[record]]
molecule = "CC1C(=O)OC2CC[N+]3([O-])CC=C(COC(=O)C(C)(O)C1(C)O)C23 (stereo not given)"
experimental_result = 3.19

[[record]]
molecule = "CN1CCC23c4c5ccc(OC6OC(C(=O)O)C(O)C(O)C6O)c4OC2C(O)C=CC3C1C5 (stereo not given)"
experimental_result = 1.63

[[record]]
molecule = "CCCCN1CCCCC1C(=O)Nc1c(C)cccc1C (stereo not given)"
experimental_result = 6.18

[[record]]
molecule = "CC(C)NCC(O)COc1cccc2[nH]ccc12 (stereo not given)"
experimental_result = 3.89

[[record]]
molecule = "CCC(C)C1OC2(C=CC1C)CC1CC(CC=C(C)C(OC3CC(OC)C(OC4CC(OC)C(NC)C(C)O4)C(C)O3)C(C)C=CC=C3COC4C(O)C(C)=CC(C(=O)O1)C34O)O2 (stereo not given)"
experimental_result = 12.4


---

# ASSAY INFO: Thermo Scientific Acclaim RSLC 120 C18, 100 × 2.1 mm, 2.2 µm, 30 °C; A: 90% water + 10% methanol + 0.01% formic acid + 5 mM ammonium formate; B: methanol + 0.01% formic acid + 5 mM ammonium formate; gradient (min/%B) 0.1/1 3/39 14/99.9 16/99.9
# TEST SETTINGS: stereoisomer not certain
LC retention time less than 6 min is MET; LC retention time greater than or equal to 6 min is NOT MET.

[[record]]
molecule = "CCOP(=S)(OCC)Oc1cnccn1"
class_assignment = "NOT MET"

[[record]]
molecule = "CCOc1nc2cccc(C(=O)OC(C)OC(=O)OC3CCCCC3)c2n1Cc1ccc(-c2ccccc2-c2nn[nH]n2)cc1 (stereo not drawn)"
class_assignment = "NOT MET"

[[record]]
molecule = "CCc1cc2cc(OC)c(OC)cc2c(Cc2ccccc2)n1"
class_assignment = "NOT MET"

[[record]]
molecule = "COC(=O)c1ccc(C)cc1C1=NC(C)(C(C)C)C(=O)N1 (stereo not drawn)"
class_assignment = "NOT MET"

[[record]]
molecule = "CNC(C)Cc1ccc(O)c(O)c1 (stereo not drawn)"
class_assignment = "MET"

[[record]]
molecule = "O=C1C(CCS(=O)c2ccccc2)C(=O)N(c2ccccc2)N1c1ccccc1 (stereo not drawn)"
class_assignment = "NOT MET"

[[record]]
molecule = "CSc1nc(N)nc(NC(C)(C)C)n1"
class_assignment = "NOT MET"

[[record]]
molecule = "CCCCCn1cc(C(=O)c2cccc3ccccc23)cc1-c1ccccc1C"
class_assignment = "NOT MET"

[[record]]
molecule = "N#CC1CCCN1C(=O)CNC12CC3CC(CC(O)(C3)C1)C2 (stereo not drawn)"
class_assignment = "MET"

[[record]]
molecule = "CN1C2CCCC1CC(NC(=O)c1nn(C)c3ccccc13)C2 (stereo not drawn)"
class_assignment = "MET"

[[record]]
molecule = "NC(=O)c1ncn(C2OC(CO)C(O)C2O)n1 (stereo not drawn)"
class_assignment = "MET"

[[record]]
molecule = "COP(=O)(NC(C)=O)SC (stereo not drawn)"
class_assignment = "MET"

[[record]]
molecule = "CCCCN(CC)C(=O)SCCC"
class_assignment = "NOT MET"

[[record]]
molecule = "CNCCN1C(=O)C(OC(C)=O)C(c2ccc(OC)cc2)Sc2ccccc21 (stereo not drawn)"
class_assignment = "NOT MET"

[[record]]
molecule = "CC(COc1ccccc1Cc1ccccc1)N1CCCCC1 (stereo not drawn)"
class_assignment = "NOT MET"

[[record]]
molecule = "CN1C2CCC1CC(OC(=O)C(O)c1ccccc1)C2 (stereo not drawn)"
class_assignment = "MET"

[[record]]
molecule = "CNC(=O)C(=NOC)c1ccccc1COc1cc(C)ccc1C"
class_assignment = "NOT MET"

[[record]]
molecule = "Nc1ccc(S(=O)(=O)NC(=O)c2ccccc2)cc1"
class_assignment = "MET"

[[record]]
molecule = "CCS(=O)(=O)c1cccnc1S(=O)(=O)NC(=O)Nc1nc(OC)cc(OC)n1"
class_assignment = "NOT MET"

[[record]]
molecule = "CCOC(=O)CSc1nc(C(C)(C)C)nn1C(=O)N(C)C"
class_assignment = "NOT MET"

[[record]]
molecule = "CC(C)N(C(=O)C(=O)O)c1ccccc1"
class_assignment = "MET"


---

# ASSAY INFO: Thermo Scientific Acclaim RSLC 120 C18, 100 × 2.1 mm, 2.2 µm, 30 °C; A: 90% water + 10% methanol + 0.01% formic acid + 5 mM ammonium formate; B: methanol + 0.01% formic acid + 5 mM ammonium formate; gradient (min/%B) 0.1/1 3/39 14/99.9 16/99.9
# TEST SETTINGS: stereoisomer not certain
// reported LC retention time for each item listed
PARAMETER MEASURED: LC retention time (min)

[[record]]
molecule = "O=C(Oc1ccccc1)c1ccccc1C(=O)Oc1ccccc1"
unit_abbrev = "min"
experimental_result = 11.2

[[record]]
molecule = "COc1ccc2c(c1)C13CCCCC1C(C2)N(C)CC3 (stereo unspecified)"
unit_abbrev = "min"
experimental_result = 6.51

[[record]]
molecule = "CC(Cc1ccc(C(C)(C)C)cc1)CN1CCCCC1 (stereo unspecified)"
unit_abbrev = "min"
experimental_result = 8.62

[[record]]
molecule = "CCCCCn1nc(C(=O)Nc2cccc3ccccc23)c2ccccc21"
unit_abbrev = "min"
experimental_result = 13

[[record]]
molecule = "CN1CCN2c3ncc(O)cc3Cc3ccccc3C2C1 (stereo unspecified)"
unit_abbrev = "min"
experimental_result = 4.54

[[record]]
molecule = "Cn1c(=O)c2c(ncn2CCCNCC(O)c2cc(O)cc(O)c2)n(C)c1=O (stereo unspecified)"
unit_abbrev = "min"
experimental_result = 3.56


---

# ASSAY INFO: Thermo Scientific Acclaim RSLC 120 C18, 100 × 2.1 mm, 2.2 µm, 30 °C; A: 90% water + 10% methanol + 0.01% formic acid + 5 mM ammonium formate; B: methanol + 0.01% formic acid + 5 mM ammonium formate; gradient (min/%B) 0.1/1 3/39 14/99.9 16/99.9
# TEST SETTINGS: stereoisomer not certain
Please respond with Y when measured LC retention time is strictly beneath 8 min, and with N in all other cases.

[[record]]
compound = "COC1(C)CC(c2ccccc2)c2c(c3ccccc3oc2=O)O1 (configuration not stated)"
class_assignment = "N"

[[record]]
compound = "O=c1[nH]c2ccccc2n1CCCN1CCN(C(c2ccccc2)c2ccccc2)CC1"
class_assignment = "N"

[[record]]
compound = "COP(=S)(OC)SCn1nnc2ccccc2c1=O"
class_assignment = "N"

[[record]]
compound = "COc1cc2[nH]c(C)c(CCN3CCN(c4ccccc4)CC3)c2cc1OC"
class_assignment = "Y"

[[record]]
compound = "CC12CCC3C(CC=C4CC(O)CCC43C)C1CCC2=O (configuration not stated)"
class_assignment = "N"

[[record]]
compound = "CN(Cc1cnc2nc(N)nc(N)c2n1)c1ccc(C(=O)NC(CCC(=O)O)C(=O)O)cc1 (configuration not stated)"
class_assignment = "Y"

[[record]]
compound = "Nc1ncnc2c1ncn2C1OC(CO)C(O)C1O (configuration not stated)"
class_assignment = "Y"

[[record]]
compound = "CCC(C)C(=O)OC1CC(C)C=C2C=CC(C)C(CCC3CC(O)CC(=O)O3)C21 (configuration not stated)"
class_assignment = "N"

[[record]]
compound = "CC(C)(ON=C(C(=O)NC1C(=O)N2C(C(=O)[O-])=C(C[n+]3ccccc3)CSC12)c1csc(N)n1)C(=O)O (configuration not stated)"
class_assignment = "Y"

[[record]]
compound = "CCOP(=S)(OCC)SCSP(=S)(OCC)OCC"
class_assignment = "N"

[[record]]
compound = "OCCOCCN1CCN(C2=Nc3ccc(O)cc3Sc3ccccc32)CC1"
class_assignment = "Y"

[[record]]
compound = "COC(=O)C(C)N(C(=O)c1ccco1)c1c(C)cccc1C (configuration not stated)"
class_assignment = "N"

[[record]]
compound = "CCS(=O)(=O)Cc1ccccc1OC(=O)NC"
class_assignment = "Y"

[[record]]
compound = "COP(=S)(OC)SCN1C(=O)c2ccccc2C1=O"
class_assignment = "N"

[[record]]
compound = "CCOC(=O)C1(c2ccccc2)CCN(C)CC1"
class_assignment = "Y"

[[record]]
compound = "CNC1C(C)OC(OC2C(C)OC(OC3C(C)=CCC4CC(CC5(C=CC(C)C(C(C)C)O5)O4)OC(=O)C4C=C(C)C(O)C5OCC(=CC=CC3C)C45O)CC2OC)CC1OC (configuration not stated)"
class_assignment = "N"

[[record]]
compound = "CC(C)OC(=O)c1cc(C(=O)OC(C)C)cc([N+](=O)[O-])c1"
class_assignment = "N"

[[record]]
compound = "COC(=O)C1=C(C)NC(C)=C(C(=O)OC(C)(C)CN(C)CCC(c2ccccc2)c2ccccc2)C1c1cccc([N+](=O)[O-])c1 (configuration not stated)"
class_assignment = "N"

[[record]]
compound = "COc1ccc2[nH]cc(CCNC(C)=O)c2c1"
class_assignment = "Y"

[[record]]
compound = "COP(=S)(OC)Oc1ccc(C#N)cc1"
class_assignment = "N"

[[record]]
compound = "CNC(C)Cc1ccccc1OC (configuration not stated)"
class_assignment = "Y"

[[record]]
compound = "CCSCCSP(=S)(OC)OC"
class_assignment = "N"


These entries and their values trace back to the RepoRT retention time repository (doi:10.1016/j.jhazmat.2019.121712).
